Measure: melting point

compound=CC(=NOCCOc1ccc(C[C@H](Oc2ccc(C)cc2)C(=O)O)cc1)c1ccc(-c2ccccc2)cc1 measure="melting point" result="128 to 130 °C"
compound=CCCc1c(OCCCOCCCOc2ccc3ccc(OCC(=O)O)cc3c2C(C)=O)ccc(C(C)=O)c1O measure="melting point" result="101 to 104 °C"
compound=CC(C)(CS(C)(=O)=O)NC(=O)c1c(I)cccc1C(=O)Nc1ccc(S(F)(F)(F)(F)F)cc1Cl measure="melting point" result="196 to 198 °C"
compound=CC(C)COc1ccc(-c2ccc3nnn(Cc4ccc5ccccc5n4)c3n2)cc1F measure="melting point" result="115 to 157 °C"
compound=C[C@H]1CCCC(C)(C)[C@@H]1[C@H](O)c1ccc(C#N)cc1 measure="melting point" result="106 to 108 °C"
compound=Nc1ccc(Cn2nc3ccccc3n2)cc1 measure="melting point" result="229 to 230 °C"
compound=Nc1nc2ccc(OC(F)(F)C(F)(F)F)cc2s1 measure="melting point" result="156 °C"
compound=O=C1CCCc2cc(S(=O)(=O)c3ccccc3)ccc21 measure="melting point" result="121 °C"

----------
Measure: melting point

compound=Cc1ccc2nc3n(c2c1)CCC3 result="118 to 120 °C"
compound=N#Cc1ccc(-c2csc(Nc3ccccc3O)n2)cc1 result="278 to 280 °C"
compound=COc1cc2c(c3c1c(=O)c1cc4ccccc4cc1n3C)C=CC(C)(C)O2 result="188 °C"
compound=Cc1c(C(F)(F)F)n(C)c(=O)n(-c2cc(N)c(C#C[Si](C)(C)C)cc2F)c1=O result="192 to 198 °C"

----------
Measure: melting point

compound=Cc1cc(-c2nnc3c4ccccc4c(OCc4cncn4C)nn23)no1 measure="melting point" result="236 to 238 °C"
compound="O=c1[nH]c(=O)n(C2CC(OCc3cccc4ccccc34)C(CO)O2)cc1F (centres undefined)" measure="melting point" result="159 to 160 °C"
compound="CC(=O)OC1CSC(Oc2ccc(-c3ccc(C#N)nc3)nc2)C(OC(C)=O)C1OC(C)=O (centres undefined)" measure="melting point" result="247 °C"
compound=COc1cc(C=C2CC(=O)OC2=O)cc(OC)c1OC measure="melting point" result="184 to 187 °C"
compound=COc1cc(C)c(CCCCCCCCCCCCCCCCCCCCCCO)c(O)c1OC measure="melting point" result="78 to 81 °C"
compound=CC(C)(C)C(=O)OCOC(=O)C(C)(C)n1nc2ccc(NCCCN3CCC(OC(c4ccccc4)c4ccccc4)CC3)nn2c1=O measure="melting point" result="162 °C"
compound=Cc1cccc(Nc2cc(Nc3ccc(OCC(=O)N(CCO)CCO)cc3)ncn2)c1 measure="melting point" result="160 to 162 °C"
compound=Clc1cccc(N2CCN(CCCOc3ccc4cn[nH]c4c3)CC2)c1Cl measure="melting point" result="159 to 161 °C"
compound="OCCNC(=S)NC(Cc1cccs1)c1ccccc1 (centres undefined)" measure="melting point" result="109 to 112 °C"
compound=O=C(c1ccc(-c2cnc3c(c2)N(Cc2cc(F)ccc2F)CCN3)cn1)N1CCOCC1 measure="melting point" result="111 to 113 °C"
compound=COC(=O)CCC(C#N)(CCC(=O)OC)c1ccc(OC)c(OC2CCCC2)c1 measure="melting point" result="81 to 82 °C"
compound="CON=C(c1ccccc1)c1ccc2c(c1)C(C)(C)CCN2CCOc1ccc(CC(Nc2ccccc2C(=O)c2ccccc2)C(=O)O)cc1 (centres undefined)" measure="melting point" result="100 to 102 °C"
compound=COC(=O)CCC(=O)Nc1ccc(C(=O)NNC(=O)OC(C)(C)C)cc1 measure="melting point" result="111 to 113 °C"
compound=CCc1cc(N(C)C(=O)N2CCN(c3cc(C)cc(C)c3)CC2)c(OC)nc1C measure="melting point" result="86 to 87 °C"
compound=CCOC(=O)/C=C/[C@H]1O[C@@H](n2cc(CC)c(=O)[nH]c2=O)C[C@@H]1OC(C)=O measure="melting point" result="132 to 133 °C"
compound=COc1ccc(S(=O)(=O)C2(C(=O)NO)CCN(Cc3ccc(-c4ccccn4)cc3)CC2)cc1 measure="melting point" result="214 °C"
compound="CC(C)(C)C(NC(=O)c1ccc(-c2ccco2)cc1)Nc1c(Nc2cccnc2)c(=O)c1=O (centres undefined)" measure="melting point" result="230 to 232 °C"
compound="COc1ccc(C=N[C@H]2C(O)O[C@H](CO)[C@@H](O)[C@@H]2O)cc1 (some centres undefined)" measure="melting point" result="165 °C"
compound=CSc1nc(=O)cc(N)n1-c1ccc(C)cc1 measure="melting point" result="130 to 132 °C"
compound="CCS(=O)(=O)C(F)(F)C(Cn1cncn1)(OP(=O)(O)O)c1ccc(F)cc1F (single isomer, unassigned; (+))" measure="melting point" result="212 to 214 °C"
compound=Cc1nn(CCO)c(-c2ccc(F)cc2)c1-c1ccc2c(c1)NC(=O)CO2 measure="melting point" result="178 to 179 °C"
compound=Clc1cc(C(Cl)(Cl)Cl)c(Cl)cc1C(Cl)(Cl)Cl measure="melting point" result="202 to 203 °C"
compound="CSCCC(CS)NC(=O)OC(C)(C)C (centres undefined)" measure="melting point" result="37 °C"
compound=CCCCN(c1c([O-])[c+](N(CCCC)C2CC(C)(C)NC(C)(C)C2)[c+]1[O-])C1CC(C)(C)NC(C)(C)C1 measure="melting point" result="151 to 152 °C"
compound="CCNC(=O)N1c2ccccc2CCC1CN1CCN(c2cccc3[nH]ccc23)CC1 (centres undefined)" measure="melting point" result="109 to 112 °C"
compound=Cc1nc(C)c(I)nc1C measure="melting point" result="59 to 63 °C"
compound=CC(C)c1cccc(-c2ccc(F)cc2)c1/C=C/COc1ccc(C(=O)C(=O)O)cc1 measure="melting point" result="142 to 143 °C"
compound="NC(=S)c1ccc(CC(NC(=O)OCc2ccccc2)C(=O)NCC(=O)NCCC(=O)OCc2ccccc2)cc1 (racemic)" measure="melting point" result="150 to 151 °C"
compound=O=C(O)Cc1nc(-c2ccc(Cl)c(Cl)c2)oc1-c1ccoc1 measure="melting point" result="222 to 223 °C"

----------
compounds and their reported melting point
Measure: melting point

compound="CCOC(=O)CC(C)Sc1nnc(S)s1 (stereo not drawn)" result="107 to 108 °C"
compound=Cn1c2c(c3cc(F)ccc31)C(=O)CCC2 result="158 °C"
compound=O=c1[nH]cnc2c(CN[C@H](CO)[C@H](O)CO)c[nH]c12 result="230 °C"

----------
molecules and their reported melting point
Measure: melting point

molecule=c1ccc2c(c1)ncc1nc(C3CCCCC3)[nH]c12 result="205 to 206 °C"
molecule=C[C@]1(CN2CCN(c3ccc(Cl)cc3)CC2)Cn2cc([N+](=O)[O-])nc2O1 result="218 to 220 °C"
molecule="CC#CCOc1ccc(S(=O)(=O)NC(C(=O)NO)C(C)(C)SCCN2CCOCC2)cc1 (centres undefined)" result="72 °C"
molecule="Cn1nc(C(O)c2ccccc2)nc1NCC(O)COc1cccc(CN2CCCCC2)c1 (centres undefined)" result="154 to 157 °C"
molecule=COc1cc(C(=O)c2ccc(Cl)cc2)cc([N+](=O)[O-])c1O result="128 to 131 °C"
molecule=CN1CCC(C(=O)O)(S(=O)(=O)c2ccc(Oc3ccc(Cl)cc3)cc2)CC1 result="185 °C"
molecule="O=C1CCC(c2ccc(CCCN3CCN(c4ccccc4)CC3)cc2)N1 (centres undefined)" result="130 °C"
molecule=CCOc1ccccc1-c1nc2nc(SC)ncc2c(=O)[nH]1 result="224 to 226 °C"
molecule=FC(F)(F)c1cc(-c2ccc(Cl)cc2)nc2c(-c3cccnc3)ncn12 result="206 °C"
molecule=CN(C)C(=O)C1(CCC#N)c2ccccc2-c2ccccc21 result="109 to 110 °C"
molecule="COC(=O)c1c(C)nc(C)c(C(=O)OCC2CCCO2)c1-c1cccc(O)c1 (centres undefined)" result="95 to 97 °C"
molecule="CC(C)(O)C1CCN(Cc2ccc(COc3cccc4c3CN(C3CCC(=O)NC3=O)C4=O)cc2)CC1 (centres undefined)" result="160 to 162 °C"
molecule=CCCCS(=O)(=O)Nc1ccc(C(=O)c2ccccc2)cc1 result="76 to 80 °C"
molecule="CC1(O)C=CC2C3CCC4=CC(=O)CCC4C3C(c3ccc(-c4cccnc4)cc3)CC21C (centres undefined)" result="159 °C"

----------
compounds and their reported melting point
Measure: melting point

compound=CCOC(c1ccccc1)(c1ccccc1)c1ncn(S(=O)(=O)N(C)C)c1C result="150 °C"
compound=O=C(NCc1ccc(Cl)cc1)c1cnc2cc(CCCO)ccc2c1O result="166 to 168 °C"
compound=FC(F)C(F)(F)Sc1nc(-c2ccccc2)c(-c2ccccc2)[nH]1 result="212 to 213 °C"
compound=CCC(=O)N[C@H]1CCc2c(ccc(OC)c2OC)C1 result="149 to 151 °C"
compound="CC1=C(C(=O)OC(C)C)C(c2cccc([N+](=O)[O-])c2)N(C(=O)Oc2ccc([N+](=O)[O-])cc2)C(=O)N1 (stereo not given)" result="138 to 140 °C"
compound="O=C(O)C1CCCC(C(=O)O)C1 (stereo not given)" result="163 to 165 °C"
compound="O=C(NCCOC1CCCCO1)c1cc([N+](=O)[O-])cc([N+](=O)[O-])c1N(CCO)CCBr (stereo not given)" result="121 to 123 °C"
compound=N#Cc1ccnc(Cl)c1Cl result="65 to 69 °C"
compound=O=c1c2cc(Oc3ccc(Cl)cc3)ccc2ncn1Cc1cccnc1 result="130 to 133 °C"
compound=CO/N=C(/CNC(=O)c1cnc(OCC(F)(F)F)c(-c2ccc(Cl)c(Cl)c2)c1)C(F)(F)F result="124 to 126 °C"
compound="Cc1c(-c2ccccc2)oc2c(OCC3CO3)cccc2c1=O (stereo not given)" result="128 to 129 °C"
compound=C=CCn1nc(CCCC)c(Cc2ccc(-c3ccccc3-c3nnn[nH]3)cc2)c1COC result="39 to 41 °C"
compound=COc1cc2cc(Cc3ccccc3)c(C)cc2c(C(C)C)c1OC result="159 to 161 °C"
compound=O=C(O)[C@@H]1CC2(CN1C(=O)OCc1ccccc1)OCCO2 result="179 to 180 °C"
compound=Cc1cc(CCCCCOc2ccc(C3=NCCO3)cc2C(=O)O)on1 result="170 to 171 °C"
